# Test system: T1, Cynomolgus monkey CLDN18 (cynomolgus monkey)
# T1 construct: On transfected HEK293-6E cells; also called Cyno CLDN18; cynomologus monkey CLDN18.2 ortholog
# T1 chain: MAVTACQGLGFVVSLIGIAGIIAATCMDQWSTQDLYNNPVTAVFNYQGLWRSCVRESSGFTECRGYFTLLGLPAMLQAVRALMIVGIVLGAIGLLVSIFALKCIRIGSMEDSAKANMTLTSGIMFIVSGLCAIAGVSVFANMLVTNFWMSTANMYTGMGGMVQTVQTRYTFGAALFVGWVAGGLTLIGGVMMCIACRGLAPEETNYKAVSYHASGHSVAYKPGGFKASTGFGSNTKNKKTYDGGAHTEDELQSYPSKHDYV
# Protocol notes: FACS on transfected HEK293-6E cells, 4 parameter logistic fit
Measurement name: Bmax
// no unit, no text: just the number

Some binders with known Bmax results, for comparison:
Binder	Bmax
v35777 (antibody, human IgG1, V domains shown, Rabbit variable regions on human IgG1 (constant region starts at alanine Kabat-114) and human C kappa (starts at arginine Kabat-108); also called parental rabbit chimeric; rabbit-human chimeric IgG1/kappa antibody construct) VH: QSLEESGGRLVTPGTPLTLTCTVSGIDLSSNPMIWVRQAPGKGLQYIGIIDTDGSTYYASWAKGRFTGSKTSTTVDLKITSPTTEDTATYFCARRLHGSSNGYYDDLWGQGTLVTISS VL: DGVMTQTPSSVSAAVGGTVTIKCQASQSIYSYLSWYQQKPGQRPKLLIYKASTLASGVPSRFKGSGSGTEFTLTISGVQCDDAATYYCQQGYTVTNVDKNTFGGGTEVVVK	1660
v37408 (antibody, human IgG1, V domains shown, Humanized, recombinant human IgG1-based monoclonal antibody; also called H4-L2) VH: QVQLVESGGGLVQPGGSLRLSCSVSGIDLSSNPMIWVRQAPGKGLEYIGIIDTDGSTYYADWAKGRFTISKDSTTVYLQMNSLRAEDTAVYYCARRLHGSSNGYYDDLWGQGTLVTVSS VL: DGQMTQSPSSVSASVGDRVTITCQASQSIYSYLSWYQQKPGQRPKLLIYKASTLASGVPSRFSGSGSGTDFTLTISSVQPEDAATYYCQQGYTVTNVDKNTFGGGTKVEVK	1520
v37410 (antibody, human IgG1, V domains shown, Humanized, recombinant human IgG1-based monoclonal antibody; also called H3-L4) VH: QVQLVESGGGLVQPGGSLRLSCSVSGIDLSSNPMIWVRQAPGKGLQYIGIIDTDGSTYYADWAKGRFTISKDSSKNTVYLQMNSLRAEDTAVYYCARRLHGSSNGYYDDLWGQGTLVTVSS VL: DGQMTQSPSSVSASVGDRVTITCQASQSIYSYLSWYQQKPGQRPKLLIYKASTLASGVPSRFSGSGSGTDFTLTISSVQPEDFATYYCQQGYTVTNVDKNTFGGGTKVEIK	1500
v37407 (antibody, human IgG1, V domains shown, Humanized, recombinant human IgG1-based monoclonal antibody; also called H4-L4) VH: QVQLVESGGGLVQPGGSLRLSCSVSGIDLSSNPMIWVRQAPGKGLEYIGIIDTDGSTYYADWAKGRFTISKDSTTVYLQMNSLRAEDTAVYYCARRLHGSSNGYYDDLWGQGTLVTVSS VL: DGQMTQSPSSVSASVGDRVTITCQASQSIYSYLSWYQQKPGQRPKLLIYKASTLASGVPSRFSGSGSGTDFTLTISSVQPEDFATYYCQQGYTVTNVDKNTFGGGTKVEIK	1410
v37409 (antibody, human IgG1, V domains shown, Humanized, recombinant human IgG1-based monoclonal antibody; also called H2-L4) VH: QVQLVESGGGLVQPGGSLRLSCSVSGIDLSSNPMIWVRQAPGKGLEYIGIIDTDGSTYYADWAKGRFTISKDSSKNTVYLQMNSLRAEDTAVYYCARRLHGSSNGYYDDLWGQGTLVTVSS VL: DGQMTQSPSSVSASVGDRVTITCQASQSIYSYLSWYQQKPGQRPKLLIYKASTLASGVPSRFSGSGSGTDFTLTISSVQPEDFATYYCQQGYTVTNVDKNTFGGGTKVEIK	1500

Then this binder:
Exercise: In one line, give reported Bmax of the entry v37411 (antibody, human IgG1, V domains shown, Humanized, recombinant human IgG1-based monoclonal antibody; also called H5-L4) VH: QVQLVESGGGLVQPGGSLRLSCSVSGIDLSSNPMIWVRQAPGKGLQYIGIIDTDGSTYYADWAKGRFTISKDSTTVYLQINSPRAEDTAVYYCARRLHGSSNGYYDDLWGQGTLVTVSS VL: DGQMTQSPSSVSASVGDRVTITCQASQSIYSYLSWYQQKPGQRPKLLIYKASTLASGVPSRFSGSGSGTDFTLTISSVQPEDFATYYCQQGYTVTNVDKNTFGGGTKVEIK .
Key: 1730
